Listing: Activity of selected compounds
test system: Bacopa monnieri; assay: Toxicity against Bacopa monnieri assessed as number of leaves at 50 ug/ml after 15 days by Bacopa sensor test (reference value: 6); assay type: organism-based; conditions: in vivo, 360 h
value kind: Activity

COC(=O)C1=CO[C@@H](O[C@@H]2O[C@H](COC(=O)c3cccc([N+](=O)[O-])c3)[C@@H](OC(C)=O)[C@H](OC(C)=O)[C@H]2OC(C)=O)[C@@H]2[C@@H](C)[C@@H](OC(C)=O)C[C@H]12; 6
COc1cccc2c1C(=O)c1c(O)c3c(c(O)c1C2=O)C[C@@](O)(C(=O)CO)C[C@@H]3O[C@H]1C[C@H](N)[C@H](O)[C@H](C)O1; 2
CCCCCCCCCCCC(=O)OC[C@H]1O[C@@H](O[C@@H]2OC=C(C(=O)OC)[C@H]3C[C@H](OC(C)=O)[C@H](C)[C@@H]23)[C@H](OC(C)=O)[C@@H](OC(C)=O)[C@@H]1OC(C)=O; 6
